# ASSAY EXPLANATION: in vitro
# TEST PARAMETERS: dog, MDCK-MDR1, pH 7.4
READOUT KIND: Papp B→A at 150 min, 2 µM (×10⁻⁶ cm/s)
One number for each entry, in ×10⁻⁶ cm/s.

Record summary for N#CCNC(=O)[C@H](Cc1c[nH]cn1)NC(=O)OCc1ccccc1 [Compound 9] : reported Papp B→A at 150 min, 2 µM = 2.9

====

# ASSAY EXPLANATION: in vitro
# TEST PARAMETERS: dog, MDCK-MDR1, pH 7.4
READOUT KIND: Papp at 150 min, 2 µM (×10⁻⁶ cm/s)
Numbers only, in ×10⁻⁶ cm/s.

For reference, reported Papp at 150 min, 2 µM for N#CCNC(=O)[C@H](Cc1c[nH]cn1)NC(=O)OCc1ccccc1 stands at 0.5
